System under test: CCR2 (Homo sapiens, UniProt P41597)
Construct: THP-1 human monocytic leukemic cell line, which expresses endogenous CCR2; endogenous in cells
Sequence (P41597 1-360 isoform P41597-2): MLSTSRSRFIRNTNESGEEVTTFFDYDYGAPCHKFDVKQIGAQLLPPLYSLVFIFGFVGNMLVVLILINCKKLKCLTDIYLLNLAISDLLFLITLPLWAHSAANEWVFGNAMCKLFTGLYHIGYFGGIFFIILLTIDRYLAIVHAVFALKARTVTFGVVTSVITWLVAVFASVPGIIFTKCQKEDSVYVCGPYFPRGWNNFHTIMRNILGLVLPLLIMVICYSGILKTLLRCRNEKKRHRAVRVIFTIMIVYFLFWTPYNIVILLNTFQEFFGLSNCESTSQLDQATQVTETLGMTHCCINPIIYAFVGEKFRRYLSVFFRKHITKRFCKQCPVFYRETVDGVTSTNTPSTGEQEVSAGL
Assay details: CCR2 binding (125I-human MCP-1 competition on human PBMC / THP-1 cells)
Settings: n = 1 unless otherwise noted; tested in one of the assays described
pKi: −log10 of the molar value.
The label depends only on pKi: 1 if it is at least 6, -1 if it is smaller.

Past entries and their recorded results:
- Molecule: "Cc1ccc(C2Oc3ccccc3C=C2C(=O)O)cc1 (racemic)"
  Category label: -1
- Molecule: "O=C(O)C1=Cc2ccccc2OC1c1cccc([N+](=O)[O-])c1 (racemic)"
  Category label: -1
- Molecule: "O=C(O)C1=Cc2ccccc2OC1c1cccc(F)c1 (racemic)"
  Category label: -1
- Molecule: "O=C(O)C1=Cc2ccccc2OC1c1cc(Cl)cc(Cl)c1 (racemic)"
  Category label: -1
- Molecule: "O=C(O)C1=Cc2ccccc2OC1c1ccc(F)c(Cl)c1 (racemic)"
  Category label: 1

Given O=C(O)C1=Cc2ccccc2OC1c1ccc(Cl)c(Cl)c1 (single isomer, unassigned; (+)) [Example 6b] , state whether its pKi is at least 6. -1

Param item: Cc1cc(C2Oc3ccccc3C=C2C(=O)O)ccc1Cl (racemic) 1

* * *

System under test: CCR2 (Homo sapiens, UniProt P41597)
Construct: THP-1 human monocytic leukemic cell line, which expresses endogenous CCR2; endogenous in cells
Assay details: CCR2 binding (125I-human MCP-1 competition on human PBMC / THP-1 cells)
Settings: n = 1 unless otherwise noted; tested in one of the assays described
pKi for assorted molecules
In textbook form, pKi equals minus log to base ten of the concentration in mol/L.

- Molecule: "O=C(O)C1=Cc2ccccc2OC1c1ccc(Cl)c2ccccc12 (racemic)"
  pKi: 5.72
- Molecule: "O=C(O)C1=Cc2ccccc2OC1c1ccc(F)c(C(F)(F)F)c1 (racemic)"
  pKi: 5.96
- Molecule: "O=C(O)C1=Cc2ccccc2OC1c1ccc(Cl)c(Cl)c1 (single isomer, unassigned; (-)) [Example 6a]"
  pKi: 7.10

Next molecule, pKi to be filled in.
I have this molecule here, O=C(O)C1=Cc2cc(Cl)ccc2OC1c1ccc(Cl)c(Cl)c1 (racemic) , and I need its recorded pKi. 6.52

* * *

Collected pKi values appear next to each entry.
System under test: CCR2 (Homo sapiens, UniProt P41597)
Construct: THP-1 human monocytic leukemic cell line, which expresses endogenous CCR2; endogenous in cells
Sequence (P41597 1-360 isoform P41597-2): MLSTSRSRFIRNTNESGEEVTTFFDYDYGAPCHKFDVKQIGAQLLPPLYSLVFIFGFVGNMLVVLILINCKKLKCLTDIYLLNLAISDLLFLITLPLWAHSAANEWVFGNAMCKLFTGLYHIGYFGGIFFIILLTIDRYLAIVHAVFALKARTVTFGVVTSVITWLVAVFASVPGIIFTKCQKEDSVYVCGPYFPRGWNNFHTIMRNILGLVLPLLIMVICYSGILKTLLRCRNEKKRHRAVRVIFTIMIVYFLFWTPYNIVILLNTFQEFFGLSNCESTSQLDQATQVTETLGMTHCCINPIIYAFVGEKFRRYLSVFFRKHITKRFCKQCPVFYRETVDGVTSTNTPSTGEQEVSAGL
Assay details: CCR2 binding (125I-human MCP-1 competition on human PBMC / THP-1 cells)
Settings: n = 1 unless otherwise noted; tested in one of the assays described
Quick note: pKi values are minus log10 of concentrations in mol/L.

Check out these entries, answers already filled in.
- Compound: "CCC1(c2ccc(Cl)c(Cl)c2)Oc2ccccc2C=C1C(=O)O (racemic)"
  System under test: "CCR2 (Homo sapiens, UniProt P41597)"
  Recorded number: 5.92
- Compound: "O=C(O)C1=Cc2ccccc2OC1c1ccc(Cl)cc1 (racemic)"
  System under test: "CCR2 (Homo sapiens, UniProt P41597)"
  Recorded number: 6.02

// lookup pKi for O=C(O)C1=Cc2ccc3ccccc3c2OC1c1ccc(Cl)c(Cl)c1 (racemic) 5.92

Origin of the recorded values: patent US8759390B2
